Target: αvβ3 from human A375 cells (Homo sapiens, UniProt P05106+P06756)
Construct: αvβ3 from human A375 cells was purified; endogenous in cells; receptor purified from the cells and used detergent-solubilised
Sequence (P06756 31-889 limits assumed): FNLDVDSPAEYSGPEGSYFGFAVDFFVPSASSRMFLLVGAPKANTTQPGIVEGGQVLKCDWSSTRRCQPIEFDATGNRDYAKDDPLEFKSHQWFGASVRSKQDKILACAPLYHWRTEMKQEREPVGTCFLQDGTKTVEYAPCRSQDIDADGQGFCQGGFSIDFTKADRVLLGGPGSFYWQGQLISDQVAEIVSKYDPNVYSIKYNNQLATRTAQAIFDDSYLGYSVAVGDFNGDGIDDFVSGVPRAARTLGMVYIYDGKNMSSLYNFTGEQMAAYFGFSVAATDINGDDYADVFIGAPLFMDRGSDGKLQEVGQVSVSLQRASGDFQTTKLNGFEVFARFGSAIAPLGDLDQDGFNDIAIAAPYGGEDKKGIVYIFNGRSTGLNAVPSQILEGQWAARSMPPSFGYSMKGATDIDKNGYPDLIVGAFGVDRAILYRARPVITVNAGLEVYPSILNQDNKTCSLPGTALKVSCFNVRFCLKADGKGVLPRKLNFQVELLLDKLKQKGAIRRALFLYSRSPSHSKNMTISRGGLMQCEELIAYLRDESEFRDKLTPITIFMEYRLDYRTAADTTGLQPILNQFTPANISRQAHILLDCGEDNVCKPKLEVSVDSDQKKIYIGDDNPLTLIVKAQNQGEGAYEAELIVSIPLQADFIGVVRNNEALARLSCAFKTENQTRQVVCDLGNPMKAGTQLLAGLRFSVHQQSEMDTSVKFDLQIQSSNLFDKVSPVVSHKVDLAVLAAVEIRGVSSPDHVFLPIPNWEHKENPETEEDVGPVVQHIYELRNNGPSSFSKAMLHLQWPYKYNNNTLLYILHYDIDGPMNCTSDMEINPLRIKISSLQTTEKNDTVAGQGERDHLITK
Sequence (P06756 891-1048 partner limits assumed): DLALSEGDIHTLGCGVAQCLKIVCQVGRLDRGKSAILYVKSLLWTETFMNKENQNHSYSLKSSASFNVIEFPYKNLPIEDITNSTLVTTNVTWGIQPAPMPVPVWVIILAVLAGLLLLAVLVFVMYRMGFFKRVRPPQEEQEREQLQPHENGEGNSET
Sequence (P05106 27-788): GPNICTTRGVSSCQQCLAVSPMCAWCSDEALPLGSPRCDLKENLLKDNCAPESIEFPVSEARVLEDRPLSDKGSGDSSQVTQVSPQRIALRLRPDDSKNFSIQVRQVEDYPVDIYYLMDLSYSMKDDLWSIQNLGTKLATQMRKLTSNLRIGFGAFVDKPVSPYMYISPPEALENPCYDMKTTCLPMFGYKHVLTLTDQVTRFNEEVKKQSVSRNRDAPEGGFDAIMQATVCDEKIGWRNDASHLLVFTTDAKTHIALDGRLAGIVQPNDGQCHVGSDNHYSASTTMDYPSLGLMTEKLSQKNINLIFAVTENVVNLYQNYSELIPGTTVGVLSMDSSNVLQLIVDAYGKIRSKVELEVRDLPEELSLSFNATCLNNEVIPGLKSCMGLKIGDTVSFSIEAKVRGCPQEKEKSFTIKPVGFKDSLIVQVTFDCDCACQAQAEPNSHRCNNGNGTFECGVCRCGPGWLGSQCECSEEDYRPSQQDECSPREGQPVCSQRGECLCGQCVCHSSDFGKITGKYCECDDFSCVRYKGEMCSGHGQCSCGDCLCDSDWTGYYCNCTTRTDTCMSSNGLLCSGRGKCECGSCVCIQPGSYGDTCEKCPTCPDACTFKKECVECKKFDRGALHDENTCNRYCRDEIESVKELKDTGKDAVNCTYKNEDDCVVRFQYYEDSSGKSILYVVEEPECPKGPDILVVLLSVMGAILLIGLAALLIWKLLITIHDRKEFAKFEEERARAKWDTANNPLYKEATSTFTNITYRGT
Assay: αvβ3 echistatin SPA binding assay
Conditions: purified αvβ3, labelled echistatin, WGA SPA beads
pIC50: −log10 of the molar value. Counter-ions that a name gives are not always drawn.
valueType: pIC50

The following compounds have reported results that may help.
[[record]]
compound = "Cc1cc(C)c(CC(=O)NC(CC(=O)O)c2cccc(NS(=O)(=O)c3cccc(NC(=N)N)c3)c2)c(C)c1 (stereo not drawn) [Example 3]"
valuetype = "pIC50"
value = 6.82

[[record]]
compound = "N=C(N)Nc1cccc(S(=O)(=O)Nc2cccc(C(CC(=O)O)NS(=O)(=O)c3ccccc3)c2)c1 (stereo not drawn) [Example 1, trifluoroacetic acid salt]"
valuetype = "pIC50"
value = 7.72

[[record]]
compound = "N=C(N)Nc1cccc(COc2cccc(C(CC(=O)O)NS(=O)(=O)c3ccccc3)c2)c1 (stereo not drawn) [Example 8]"
valuetype = "pIC50"
value = 7.48

[[record]]
compound = "N=C(N)Nc1cccc(S(=O)(=O)Nc2cccc(C(CC(=O)O)NC(=O)c3ccccc3)c2)c1 (stereo not drawn) [Example 4]"
valuetype = "pIC50"
value = 7.89

[[record]]
compound = "N=C(N)Nc1cccc(C(=O)Nc2cccc(C(CC(=O)O)NS(=O)(=O)c3ccccc3)c2)c1 (stereo not drawn) [Example 2, trifluoroacetic acid salt]"
valuetype = "pIC50"
value = 6.41

[[record]]
compound = "N=C(N)Nc1cccc(S(=O)(=O)Nc2cccc(C(CC(=O)O)NC(=O)CCc3ccccc3)c2)c1 (stereo not drawn) [Example 6]"
valuetype = "pIC50"
value = 7.44

[[record]]
compound = "CCC(C(=O)NC(CC(=O)O)c1cccc(NS(=O)(=O)c2cccc(NC(=N)N)c2)c1)c1ccccc1 (mixture of isomers) [Example 7]"
valuetype = "pIC50"
value = 6.94


P: N=C(N)Nc1cccc(S(=O)(=O)Nc2cccc(C(CC(=O)O)NC(=O)Cc3ccc(Cl)cc3Cl)c2)c1 (stereo not drawn) [Example 5]
Q: O=C(O)CC(NS(=O)(=O)c1ccccc1)c1cccc(NS(=O)(=O)c2cccc(NC3=NCCN3)c2)c1 (stereo not drawn) [Example 9]
Query string: Short answer wanted: higher pIC50, P or Q ? Selection: enter the item's label.
Result string: Q
(Q: 9.53, P: 7.14)
